# experimental_target: human EP4 receptor (Homo sapiens, UniProt P35408)
# Sequence (P35408 whole entry): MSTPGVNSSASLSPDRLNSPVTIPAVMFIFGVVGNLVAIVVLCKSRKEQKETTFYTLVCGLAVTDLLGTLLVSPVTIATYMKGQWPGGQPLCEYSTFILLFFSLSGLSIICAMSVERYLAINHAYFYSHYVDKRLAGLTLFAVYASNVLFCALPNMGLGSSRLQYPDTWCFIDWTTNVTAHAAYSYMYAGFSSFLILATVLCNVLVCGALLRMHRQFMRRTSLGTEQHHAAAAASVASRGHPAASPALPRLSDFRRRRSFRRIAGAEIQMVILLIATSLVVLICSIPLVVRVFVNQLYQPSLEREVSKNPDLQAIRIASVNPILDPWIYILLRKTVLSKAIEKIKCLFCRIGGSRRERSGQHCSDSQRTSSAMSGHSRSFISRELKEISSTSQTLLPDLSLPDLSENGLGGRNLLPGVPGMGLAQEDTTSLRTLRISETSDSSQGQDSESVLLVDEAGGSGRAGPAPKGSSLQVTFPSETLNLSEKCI
# experiment_summary: AlphaScreen cAMP functional assay, PGE2-stimulated HEK293 membranes
# run_parameters: 3 nM PGE2; HEK293 membranes; read-out: IC50 on PGE2-stimulated cAMP production
assay_metric: IC50 (nM)
One number for each entry, in nM.

## Task Recorded IC50 for O=C([O-])c1ccc(C2(NC(=O)[C@H]3CC4(CCN3Cc3ccc(C(F)(F)F)cc3)CC4)CC2)cc1.[Na+] [CR6086] , please?
## Result 22

----------
# experiment_summary: CR6086 pharmacokinetics in rats
# Assay type: in vivo, rat
# run_parameters: rat, plasma; oral, 10 mg/kg; read-out: AUC24
assay_metric: AUC (ng·h/mL)
Answers are plain numbers, in ng·h/mL.

## Task // returns reported AUC for input `O=C([O-])c1ccc(C2(NC(=O)[C@H]3CC4(CCN3Cc3ccc(C(F)(F)F)cc3)CC4)CC2)cc1.[Na+]`
## Result 58000
